- System: T1, cynomolgus monkey serum albumin (cynomolgus monkey)
- T1 construct: also called cyno albumin
- Assay Details: BLI Octet RED96, albumin on AR2G sensors (as in Example 4)
Consider the following binders; for each one, report its Kd.

Quick one: Kd of SA1_S30K humanized variant 2 VHH (VHH, also called h2) VHH: EVQLQESGGGLVQPGGSLRLSCAASGRNIKEYVMGWFRQAPGKEREFVAAISWSAGNIYYADSVKGRFTISRDNSKNTVYLQMNTLRPEDTAVYYCAAGRYSAWYVAAYEYDYWGQGTLVTVSS ?
0.5 nM

Quick one: Kd of SA1_S30K humanized variant 1 VHH (VHH, also called h1) VHH: EVQLQESGGGLVQPGGSLRLSCAASGRNIKEYVMGWFRQAPGKEREFVAAISWSAGNIYYADSVKGRFTISRDNSKNTVHLQMNTLRPEDTAVYYCAAGRYSAWYVAAYEYDYWGQGTLVTVSS ?
0.36 nM

Quick one: Kd of SA1_S30K humanized variant 3 VHH (VHH, also called h3) VHH: EVQLQESGGGLVQPGGSLRLSCAASGRNIKEYVMGWFRQAPGKEREFVAAISWSAGNIYYADSVKGRFTISRDNSKNTVHLQMNSLRPEDTAVYYCAAGRYSAWYVAAYEYDYWGQGTLVTVSS ?
0.29 nM
